# measurement_target: NS3 (Hepatitis C virus, UniProt A3EZJ3, R155K)
# Sequence (A3EZJ3 entry or part of it R155K): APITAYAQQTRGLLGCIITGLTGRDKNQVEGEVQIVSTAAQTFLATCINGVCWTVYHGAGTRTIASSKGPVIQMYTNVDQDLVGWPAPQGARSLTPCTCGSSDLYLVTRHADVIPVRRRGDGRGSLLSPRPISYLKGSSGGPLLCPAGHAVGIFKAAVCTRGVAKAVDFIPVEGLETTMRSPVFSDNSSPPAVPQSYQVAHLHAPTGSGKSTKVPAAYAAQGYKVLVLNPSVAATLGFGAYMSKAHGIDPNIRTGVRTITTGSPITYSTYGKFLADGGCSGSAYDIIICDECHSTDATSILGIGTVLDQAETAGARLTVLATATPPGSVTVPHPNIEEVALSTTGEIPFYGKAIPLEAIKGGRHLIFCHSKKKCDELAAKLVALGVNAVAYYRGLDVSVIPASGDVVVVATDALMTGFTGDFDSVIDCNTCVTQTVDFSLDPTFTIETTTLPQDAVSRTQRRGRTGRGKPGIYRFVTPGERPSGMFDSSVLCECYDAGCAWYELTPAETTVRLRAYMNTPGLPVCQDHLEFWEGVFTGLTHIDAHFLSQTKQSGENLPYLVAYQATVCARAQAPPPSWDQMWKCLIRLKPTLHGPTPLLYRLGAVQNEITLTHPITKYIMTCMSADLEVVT
# method_notes: Inhibition of HCV genotype-1a full length NS3 protease R155K mutant preincubated for 10 mins followed by Ac-DED(Edans)EEAbuj-[COO]ASK(Dabcyl)-NH2 addition in presence of co-factor 2K-NS4A by fluorescence assay
pKi: −log10 of the molar value.
measurement_kind: pKi

item_smiles	measurement_kind	reported_value
CC(C)(C)[C@@H](CNS(=O)(=O)c1cccnc1)NC(=O)Nc1nc(Cl)c(Cc2ccccc2)n(CC(=O)Nc2cc(F)ccc2C(=O)NS(=O)(=O)c2ccc(C(F)(F)F)cc2)c1=O	pKi	7.40
CC1(C)CC(=O)N(C[C@@H](NC(=O)Nc2nc(Cl)c(CCC3CCCCC3)n(CC(=O)Nc3cc(F)ccc3C(=O)NS(=O)(=O)c3ccc(C(F)(F)F)cc3)c2=O)C(C)(C)C)C(=O)C1	pKi	8.70
CC1(C)CC(=O)N(C[C@@H](NC(=O)Nc2nc(Cl)c(Cc3ccccc3)n(CC(=O)Nc3cc(F)ccc3C(=O)NS(=O)(=O)c3ccc(C(F)(F)F)cc3)c2=O)C(C)(C)C)C(=O)C1	pKi	7.52

----------
# measurement_target: NS3 (Hepatitis C virus)
# method_notes: Inhibition of HCV genotype-1a full length NS3 protease preincubated for 10 mins followed by Ac-DED(Edans)EEAbuj-[COO]ASK(Dabcyl)-NH2 addition in presence of co-factor 2K-NS4A by fluorescence assay
# Parameters: species or system Hepatitis C virus subtype 1a
pKi: −log10 of the molar value. Non-standard residues stand in square brackets, D forms with d. Residues, ends and D or L forms follow the SMILES beside them. dGla = N[C@H](CC(C(=O)O)C(=O)O)C(=O)O; Cha = N[C@@H](CC1CCCCC1)C(=O)O

molecule	pKi
O=C(Cn1c(Cc2ccccc2)c(Cl)nc(NNC(=O)c2ccccc2)c1=O)Nc1ccccc1C(=O)NS(=O)(=O)c1ccc(C(F)(F)F)cc1	5.78
CC1(C)CC(=O)N(C[C@@H](NC(=O)Nc2nc(Cl)c(CCC3CCCCC3)n(CC(=O)Nc3cc(F)ccc3C(=O)NS(=O)(=O)c3ccc(C(F)(F)F)cc3)c2=O)C(C)(C)C)C(=O)C1	7.52
CC[C@H](C)[C@H](NC(=O)[C@H](CC(C)C)NC(=O)[C@@H](CC(C(=O)O)C(=O)O)NC(=O)[C@H](CC(=O)O)NC(C)=O)C(=O)N[C@@H](CC1CCCCC1)C(=O)N[C@@H](CS)C(=O)O (Ac-D[dGla]LI[Cha]C-OH)	8.05
CC(C)(C)N1CCN(c2nc(Cl)c(Cc3ccccc3)n(CC(=O)Nc3ccccc3C(=O)NS(=O)(=O)c3ccc(C(F)(F)F)cc3)c2=O)C1=O	6.42
CC1(C)CC(=O)N(C[C@@H](NC(=O)Nc2nc(Cl)c(Cc3ccccc3)n(CC(=O)Nc3cc(F)ccc3C(=O)NS(=O)(=O)c3ccc(C(F)(F)F)cc3)c2=O)C(C)(C)C)C(=O)C1	6.80
CC(C)(C)[C@@H](CNS(=O)(=O)c1cccnc1)NC(=O)Nc1nc(Cl)c(Cc2ccccc2)n(CC(=O)Nc2cc(F)ccc2C(=O)NS(=O)(=O)c2ccc(C(F)(F)F)cc2)c1=O	6.72

----------
# measurement_target: NS3 (Hepatitis C virus)
# method_notes: Inhibition of HCV genotype-3a full length NS3 protease preincubated for 10 mins followed by Ac-DED(Edans)EEAbuj-[COO]ASK(Dabcyl)-NH2 addition in presence of co-factor 2K-NS4A by fluorescence assay
# Parameters: species or system Hepatitis C virus subtype 3a
I'd appreciate it if you marked entries MET when Ki is lower than 70 nM and NOT MET when it is not.

item_smiles	group
CC1(C)CC(=O)N(C[C@@H](NC(=O)Nc2nc(Cl)c(CCC3CCCCC3)n(CC(=O)Nc3cc(F)ccc3C(=O)NS(=O)(=O)c3ccc(C(F)(F)F)cc3)c2=O)C(C)(C)C)C(=O)C1	MET
CC1(C)CC(=O)N(C[C@@H](NC(=O)Nc2nc(Cl)c(Cc3ccccc3)n(CC(=O)Nc3cc(F)ccc3C(=O)NS(=O)(=O)c3ccc(C(F)(F)F)cc3)c2=O)C(C)(C)C)C(=O)C1	NOT MET
CC(C)(C)NC(=O)Nc1nc(Cl)c(CCC2CCCCC2)n(CC(=O)Nc2cc(-c3cncnc3)ccc2C(=O)NS(=O)(=O)c2ccc(C(F)(F)F)cc2)c1=O	NOT MET
CC(C)(C)NC(=O)Nc1nc(Cl)c(Cc2cccc3ccccc23)n(CC(=O)Nc2ccccc2S(=O)(=O)NC(=O)c2ccc(C(F)(F)F)cc2)c1=O	NOT MET
COc1ccc2c(O[C@@H]3C[C@H]4C(=O)N[C@]5(C(=O)O)C[C@H]5/C=C\CCCCC[C@H](NC(=O)OC5CCCC5)C(=O)N4C3)cc(-c3csc(NC(C)C)n3)nc2c1	MET
